tested on: EKVX NSCLC; experiment: NCI-60 one-dose screen, 48 h (100 = growth as untreated, 0 = no growth, -100 = all killed); conditions: 10 µM unless noted
Compounds without any hit were thinned out: in the full panel of roughly 83,000, 20% have a hit.
experimentalReadout: growth (%)
Please respond with the number in % and leave the unit unwritten.

>  <molecule>
Nc1c2ccccc2nc2ccccc12 (tested in a mixture with another compound)

>  <resultUnit>
%

>  <growth>
22.6

$$$$
>  <molecule>
CC(C)COCC(CN(Cc1ccccc1)c1ccccc1)N1CCCC1 (stereo unspecified)

>  <resultUnit>
%

>  <growth>
54

$$$$

Please turn your attention to the following entry.
// growth (EKVX NSCLC) for COc1cc2c(cc1OCCCOc1ccc(-c3cc4ccccc4c4ccccc34)cc1)N=C[C@@H]1CCCN1C2=O = -74.1
